Origin of the recorded values: the supplement of paper PMC5998384

Test system: HeLa Kyoto;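 also: HeLa Kyoto cells arrested at G1/S by double thymidine block, proteins quantified by TMT10plex mass spectrometry in mild NP-40 versus SDS extracts, three biological replicates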
EXPERIMENTAL PROTOCOL: solubility in G1/S (NP-40 vs SDS abundance) (log2 ratio); higher = more soluble
EXPERIMENTAL PARAMETERS: cell cycle stage: G1/S
# reported solubility in G1/S (log2); entries follow
Please give only the number in your answer, with no unit.

# SUBSTANCE, READOUT NUMBER
data = [
    ("MASVTRAVFGELPSGGGTVEKFQLQSDLLRVDIISWGCTITALEVKDRQGRASDVVLGFAELEGYLQKQPYFGAVIGRVANRIAKGTFKVDGKEYHLAINKEPNSLHGGVRGFDKVLWTPRVLSNGVQFSRISPDGEEGYPGELKVWVTYTLDGGELIVNYRAQASQATPVNLTNHSYFNLAGQASPNINDHEVTIEADTYLPVDETLIPTGEVAPVQGTAFDLRKPVELGKHLQDFHLNGFDHNFCLKGSKEKHFCARVHHAASGRVLEVYTTQPGVQFYTGNFLDGTLKGKNGAVYPKHSGFCLETQNWPDAVNQPRFPPVLLRPGEEYDHTTWFKFSVA [GALM]", 0.236),
]

The substance ARFGAP2 on HeLa Kyoto: solubility in G1/S (log2) was 0.205
